# study.system: T1, human Siglec-7 expressed on human cells (primary monocytes, dendritic cells, macrophages, NK cells, … (human, UniProt Q9Y286 19-467))
# T1 construct: Endogenous receptor on cells; also called Siglec-7 receptor
# T1 sequence (Q9Y286 19-467): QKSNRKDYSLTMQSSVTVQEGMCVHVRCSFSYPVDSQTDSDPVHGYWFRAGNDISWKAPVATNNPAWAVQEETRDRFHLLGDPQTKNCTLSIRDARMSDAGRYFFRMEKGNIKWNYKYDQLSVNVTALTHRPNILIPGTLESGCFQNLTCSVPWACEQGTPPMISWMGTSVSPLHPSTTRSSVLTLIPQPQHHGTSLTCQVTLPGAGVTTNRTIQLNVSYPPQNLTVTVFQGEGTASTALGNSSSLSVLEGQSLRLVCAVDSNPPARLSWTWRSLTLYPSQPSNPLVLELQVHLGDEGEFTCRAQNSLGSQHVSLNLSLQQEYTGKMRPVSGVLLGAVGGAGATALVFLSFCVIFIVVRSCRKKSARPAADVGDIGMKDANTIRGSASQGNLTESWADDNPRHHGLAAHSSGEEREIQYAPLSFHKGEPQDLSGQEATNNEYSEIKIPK
# procedure.text: FACS, human primary macrophages, 10 ug/ml mAb
Provide the reported % Positive of each item.
Please state the number and follow it with the unit.

These solved cases illustrate the format of a correct answer.
• anti-Siglec-7 antibody 7A3 (antibody, V domains shown, Variable domains assembled from FR and CDR entries; VL FR1 and VH FR1 hold Z and VH FR1 looks shortened at its N-terminus) VH: LVZSGGALVKPGGSLKLSCAASGFTFSNYAMSWVRQTPEKRLEWVASISSGGSYNYYPDSVKGRFTISRDNARNTLYLQMSSLRSKDTAMYYCASQSYGSSYWYFDVWGAGTTVTVSS VL: DIQMTQZPATLSVTPGDRVSLSCRASQSISEYLHWYHQKSHESPRLLIKFASQSICGIPSRFSGSGSGSDFTLTINSVEPEDVGVYYCQNGHNFPYTFGGGTKLEIK = 99.7%
• anti-Siglec-7 antibody 3E11 (antibody, V domains shown, Variable domains assembled from FR and CDR entries) VH: QVQLQQSGAELARPGASVKLSCKASGYIFTDYGITWVKQRTGQGLEWIGEISPRSGETYFNENYRVKATLTADKSSSTAYMQLFSLTSEDSAVYFCAREGNPFTYWGHGTLVTVSA VL: DVZMTQTPLSLPVSLGDQASISCRSSQSLVHSTGNTYLHWYLQKPGQSPKLLIYKVSNRFCGVPDRFSGSGAGTDFTLKISRVEAEDLGVYFCSQNTHVPYTFGGGTKLEIK = 99.6%
• anti-Siglec-7 antibody 7E11 (antibody, V domains shown, Variable domains assembled from FR and CDR entries) VH: QVQLKQSGPVLVAPSQSLSITCTVSGFSLSNYGVHWVRQFPGKGLEWLGVIWAGGITNYNSVLMSRLSISKDNSKSQVFLKMNSLQTDDTAMYYCAKQGGTSFSYWGQGTLVTVSA VL: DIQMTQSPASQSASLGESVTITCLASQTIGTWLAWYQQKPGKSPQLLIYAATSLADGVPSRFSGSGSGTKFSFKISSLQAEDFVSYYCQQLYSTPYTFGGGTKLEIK = 99.8%
• anti-Siglec-7 antibody 4E3 (antibody, V domains shown, VL FR1 there holds a Z); also called S7-4E3; mAb S7-4E3) VH: EVQLVESGGALVKPGGSLKISCAVSGFIFSNYDMSWVRQNPEKRLEWVATISSGGGYTYYPDSVKGRFTISRDNAKNALYLQMSSLRSEDTALYYCTRHGYGNYDWYFDVWGAGATVTVSS VL: QIVLTQSPAILSASPGEKVTMTCSANSSFTYMYWYQQKPGSSPRLLIFDTSNLASGVPIRFSGSGSGTSYSLTISRMEAEDTATYYCQQWSSSPLTFGAGTKLELK = 99.6%
• anti-Siglec-7 antibody 7F12 (antibody, V domains shown, Variable domains assembled from FR and CDR entries) VH: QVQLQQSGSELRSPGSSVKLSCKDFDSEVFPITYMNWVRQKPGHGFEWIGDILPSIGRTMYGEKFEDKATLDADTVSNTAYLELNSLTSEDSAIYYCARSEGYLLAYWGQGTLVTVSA VL: DVLMTQTPLSLPVSLGDQASISCRSSQSLVHSTGNTYLHWYLQKPGQSPKLLIYKVSNRFSGVPDRFSGSGAGTDFTLKISRVEAEDLGVYFCSQNTHVPYTFGGGTKLEIK = 99.3%

For each of the binders below, state % Positive.
1. anti-Siglec-7 antibody 2G4 (antibody, V domains shown, Variable domains assembled from FR and CDR entries) VH: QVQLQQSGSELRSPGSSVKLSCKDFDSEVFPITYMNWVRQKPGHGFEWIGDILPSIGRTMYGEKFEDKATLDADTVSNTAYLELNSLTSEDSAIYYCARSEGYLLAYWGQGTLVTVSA VL: DIQMTQSLSYLSVSLGGRVTITCKASDHINNWLAWYQQKPGNAPRLLISGATSLETGFPSRFSGSGSGKDYTLSITSLQTEDVATYYCHQYWNTPYTFGGGTRLEIK
2. anti-Siglec-7 antibody 10G8 (antibody, V domains shown, Variable domains assembled from FR and CDR entries) VH: EVKLVEFGGALVKPGGSLKLSCAALGFTFSTYAMFRVRQTPEKREEGVASISSGGRYTYYPDSAKDRHPIFRDNARNTLYLQMSSLRSKDTAMYYCVRHSYGSSYWYLDVWGAGTTVTVSS VL: DIQMTQFPATLSGTPGDRVZLSRRASQSIREYLHWYQQKSHESPRLZIKFASQSICGIPSRFSGSGSGSDFTLSINTVEPEDVGVYYCQKAHNFPYTFGGGTKLEIK

["99.5%", "99.7%"]

Values were extracted from patent US20200277374A1.
